# target-of-assay: Oxysterols receptor LXR-beta (Homo sapiens, UniProt P55055)
# Sequence (P55055 whole entry): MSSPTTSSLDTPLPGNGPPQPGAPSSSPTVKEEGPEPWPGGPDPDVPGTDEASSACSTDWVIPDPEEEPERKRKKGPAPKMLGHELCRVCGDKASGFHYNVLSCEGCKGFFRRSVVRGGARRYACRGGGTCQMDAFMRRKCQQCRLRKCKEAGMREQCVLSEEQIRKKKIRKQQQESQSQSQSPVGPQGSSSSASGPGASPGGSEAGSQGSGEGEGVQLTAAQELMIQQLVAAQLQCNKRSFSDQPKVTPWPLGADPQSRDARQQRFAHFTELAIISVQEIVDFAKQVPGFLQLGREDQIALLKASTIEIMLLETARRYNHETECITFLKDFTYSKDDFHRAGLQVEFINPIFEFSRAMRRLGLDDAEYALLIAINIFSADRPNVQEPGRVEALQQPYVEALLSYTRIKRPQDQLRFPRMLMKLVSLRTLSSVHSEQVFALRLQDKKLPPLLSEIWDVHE
# assay-notes: Agonist activity at Gal4-tagged LXRbeta (unknown origin) expressed in CHOK1 cells after 24 hrs by luciferase reporter gene assay
# Assay type: cell-based, CHO-K1
# test-parameters: read-out: EC50
parameter: pEC50
Please note pEC50 is a logarithmic value: minus log10 of concentration in mol/L. Answer with that number alone.

Consider the reported pEC50 for these compounds:
CCCc1cc2c(C(F)(F)F)cc(=O)oc2c(CCC)c1OCCCCN1C(=O)C(C)N(C)C1=O (stereo not given)
5.89
CCCc1c(OCCCCN2C(=O)NC(C)(c3ccc4c(c3)OCO4)C2=O)ccc2c(C(F)(F)F)cc(=O)oc12 (stereo not given)
5.96
CCCc1cc2c(C(F)(F)F)cc(=O)oc2c(CCC)c1OCCCCN1C(=O)CCC1=O
5.85

Need pEC50, item CCCc1cc2c(C(F)(F)F)cc(=O)oc2c(CCC)c1OCCCCN1C(=O)NC(C)(c2ccc([N+](=O)[O-])cc2)C1=O (stereo not given) 5.10

Please answer likewise for CCCc1cc2c(C(F)(F)F)cc(=O)oc2c(CCC)c1OCCCCN1CCOC1=O 5.66

Please answer likewise for O=C(O)Cc1cccc(OCCCN(Cc2cccc(C(F)(F)F)c2Cl)CC(c2ccccc2)c2ccccc2)c1 6.38

Please answer likewise for CCCc1cc2c(C(F)(F)F)cc(=O)oc2c(CCC)c1OCCCCN1C(=O)NC(C)(c2ccc3c(c2)OCO3)C1=O (stereo not given) 5.92

Please answer likewise for CCCc1cc2c(C(F)(F)F)cc(=O)oc2c(CCC)c1OCCCCN1C(=O)NC(C)(c2ccccc2)C1=O (stereo not given) 5.28

Please answer likewise for CCCc1c(OCCCCN2C(=O)CN(C)C2=O)ccc2c(C(F)(F)F)cc(=O)oc12 5.89

Please answer likewise for CCCc1cc2c(C(F)(F)F)cc(=O)oc2c(CCC)c1OCCCCN1C(=O)CSC1=O 5.85
